Where these numbers come from: the supplement of paper PMC9170038

Attribute: apparent KD of MS2 coat protein
System: MS2 coat protein
Test: apparent KD of MS2 coat protein; higher = weaker reporter binding
Conditions: Eterna round: R107; input ligand: none
Use nM as the unit, but write only the number.

Past entries and their recorded results:
GGUUUGCGGCCUGAUACCAGUGAUGGAUGAACCCUAGUCAACAUGAGGAUCACCCAUGUUCACCCUUGGCAGCAGUGACGCUCGA [theeternabot_exclusion_MS2_Theo_B_34] :: 69.7
ACAUGAGGAUCACCCAUGUAUUACCGGGAAGGAGCGCGUAAGGACGCAGGUAGGUCGCUCGGCGUCGUGCCGGAAGGCACGACGA [#1 Same State - Arginine A Attempt #22 (HarryS)] :: 13.6
GACAUGAGGAUCACCCAUGUACCGCGAGAAGGAGCGCGGAUAAACGCAGGUAGGUCGCUCGUGGGCUUUUAUUCAAUCGAAAGCU [Zaesar] :: 50.5
GACGCAUGAGUUGUAACAGCUCAUGGGUCGCGAGGACCGGUACGGCCGCCACUCGGCUGUACAUGAGGAUCACCCAUGUCAGGGU [#1 Same State - Tryptophan A Attempt #29 (HarryS)] :: 346
AUAAUAAAGACGGCCGCCACUAUAAACAUGAGGAACAUGAGGAUCACCCAUGUAUGAGGAUCACCUAGGACCGGGUCAAAUAUUA [AstrosExyTryB#3] :: 49.4

We now examine a further sequence.
[in] Item GGGUGGUAGGCGGCCGCCACUGAUUUUUAUAUAUAUAUAACAUGAGGAUCACCCAUGUAGAUAUGCAGGACCGGGCCUGUUGUUU [aaaM] has what recorded apparent KD of MS2 coat protein?
[out] 25

====

Tested on: MS2 coat protein
Assay: apparent KD of MS2 coat protein, switch ON state; designed switch direction (-1 OFF switch, 1 ON switch): -1; higher = weaker reporter binding
Settings: FMN input: 0 or 200 uM; Eterna round: R93 (includes R88 designs)
Reported apparent KD of MS2 coat protein is given for each of the following sequences.
Field format: number, assumed µM, no unit text.

AAAAAGGGAGGAUAUACAUGAGGAUCACCCAUGUAAAAAAAAACAAAAAAAAAAAAAAGUAGAAGGCCCAAAAA [here you go] :: 0.0523
AAAAAACAUGAGGAUCACCCAUGUGAGGAUAUGCAAAACCCAUAUAAAAAGGGAAAAAGCAGAAGGCACAAAAA [Starry Exclusion 1.3 (wbt round 1 mod)] :: 0.0228

From here, focus on the item given below.
[in] Quick one: apparent KD of MS2 coat protein of AAAAAACAUGAGGAUCACCCAUGUGAGGAUAUCGGUAGUGAGGCUAUAGUGUCAAUAGUGAGAAGGCACAUAAA [Brourd 613 Mod 12 - Jieux - Exclusion 1] ?
[out] 0.0311

====

Tested on: MS2 coat protein
Test: apparent KD of MS2 coat protein; designed switch direction (-1 OFF switch, 1 ON switch): -1; higher = weaker reporter binding
Conditions: Eterna round: R95; input ligand: FMN 200 uM
Catalogue of sequences with associated apparent KD of MS2 coat protein
The figure you give is taken to be in µM; do not add the unit.

Examples from the recorded data:
GAAAAGGUAGGAUAUACGAAAAAAAAGGGUAGAAAAAAAACACAUGAGGAUCACCCAUGUAGAAGGGCCAAAAG [salish99_ex2_r3_032] (puzzle: Exclusion 2) :: 0.0402
GCCAGAGCAGGAUAUUGAUAAAUUCACAUGAGGAUCACCCAUGUCCAGCGAAAGCUGGAACGAGAAGGGCUCUGGC [Mat - Exclusion 5 - Eli mod - D87] (puzzle: Exclusion 5) :: 0.0117

[in] Request the reported apparent KD of MS2 coat protein associated with UUUAAUUUUUUUUUUUUACAAGCUUUUUGCUCGUCUUAUACAUGAGGAUCACCCAUGUAAAUGGAAGAUAAAUUAUC [JMF 7] (puzzle: Sensor v3, turn-off variant 2)
[out] 0.0167

[in] # get_value(readout='apparent KD of MS2 coat protein', item= ACAAGCUUUUUGUUCGUCUUAUACACUCCUAAGAGGACAACAUGAGGAUCACCCAUGUAACAAAGACGAACUCAUGU [Sesor Array 10 - Jieux - Sensor v3, turn-off variant 2] (puzzle: Sensor v3, turn-off variant 2) )
[out] 0.0143

[in] Which apparent KD of MS2 coat protein reading was recorded for the sequence CUAGAUCUUCGGAUCUAGUACAUGAGGAUCACCCAUGUUACGAGUUGAUCCUCAUACAAGCUUUUUGCUCGUCUUAU [Sensor v3 - Turn-off variant 1 - 25] (puzzle: Sensor v3, turn-off variant 1) ?
[out] 0.0165
